pIC50 values recorded for Poly [ADP-ribose] polymerase 1 (Homo sapiens)
pIC50 here is simply -log10 of the concentration when that concentration is written in mol/L.

For this molecule ( `CCC(=O)Nc1ccc(-c2ccc(-c3nc4c(C(N)=O)cc(F)cc4[nH]3)cc2)cc1` ), measured pIC50 is 5.76

For this molecule ( `COc1cc(-c2ccc(-c3nc4c(C(N)=O)cc(F)cc4[nH]3)cc2)ccc1NC(=O)C1CC1` ), measured pIC50 is 5.22

For this molecule ( `NC(=O)c1cccc2[nH]c(-c3ccc(-c4ccc(OCCN5CCCCC5)cc4)cc3)nc12` ), measured pIC50 is 6.14

For this molecule ( `NC(=O)c1cc(F)cc2[nH]c(-c3ccc(-c4cccc(NC(=O)C5CC5)c4)cc3F)nc12` ), measured pIC50 is 5.89

---

Biological target: UniProtKB Q02127
Sequence (Q02127 whole entry): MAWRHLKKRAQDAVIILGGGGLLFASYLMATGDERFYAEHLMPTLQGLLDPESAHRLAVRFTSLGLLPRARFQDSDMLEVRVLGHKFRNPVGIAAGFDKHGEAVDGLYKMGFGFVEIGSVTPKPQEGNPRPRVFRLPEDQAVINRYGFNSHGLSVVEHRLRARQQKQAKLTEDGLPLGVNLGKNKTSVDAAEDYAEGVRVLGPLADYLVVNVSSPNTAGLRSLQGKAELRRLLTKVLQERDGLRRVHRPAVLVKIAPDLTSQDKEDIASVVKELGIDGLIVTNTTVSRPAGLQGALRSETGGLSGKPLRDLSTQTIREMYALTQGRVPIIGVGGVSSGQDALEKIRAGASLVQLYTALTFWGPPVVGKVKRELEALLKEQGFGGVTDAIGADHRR
Experiment: Inhibition of DHODH (unknown origin) using L-DHO, DUQ, DCIP as substrate preincubated for 30 mins followed by substrate addition measured after 20 mins by multilabel plate reader analysis
Exercise: for every item that follows, state its recorded pIC50.
pIC50 here is simply -log10 of the concentration when that concentration is written in mol/L.

For this compound ( `CC(=O)Nc1ccc(-c2ccc(-c3nc4c(C(=O)O)cc(C)cc4[nH]3)cc2)cc1` ), measured pIC50 is 6.68

For this compound ( `Cc1cc(C(N)=O)c2nc(-c3ccc(-c4ccccc4)cc3)[nH]c2c1` ), measured pIC50 is 5.11

For this compound ( `CC(=O)Nc1cccc(-c2ccc(-c3nc4c(C(=O)O)cc(C)cc4[nH]3)cc2)c1` ), measured pIC50 is 5.86

For this compound ( `NC(=O)c1cccc2[nH]c(-c3ccc(-c4ccccc4)cc3)nc12` ), measured pIC50 is 5.01

For this compound ( `CC(=O)Nc1ccccc1COc1ccc(-c2ccc(-c3nc4c(C(=O)O)cc(C)cc4[nH]3)cc2)cc1` ), measured pIC50 is 6.52

For this compound ( `CC(=O)Nc1cccc(COc2ccc(-c3ccc(-c4nc5c(C(=O)O)cc(C)cc5[nH]4)cc3)cc2)c1` ), measured pIC50 is 7.55

For this compound ( `CC(=O)Nc1ccc(COc2ccc(-c3ccc(-c4nc5c(C(=O)O)cc(C)cc5[nH]4)cc3)cc2)cc1` ), measured pIC50 is 7.89
